- Test target: MAGE-A11:PCF11 interaction (GST-MAGE-A11 and FAM-PCF11_4) (Homo sapiens)
- Construct: GST-MAGE-A11 MHD (human MAGE-A11 MHD amino acid 218-429); made in house; host or cells: E. coli BL21(DE3)
- Sequence (P43364 218-429): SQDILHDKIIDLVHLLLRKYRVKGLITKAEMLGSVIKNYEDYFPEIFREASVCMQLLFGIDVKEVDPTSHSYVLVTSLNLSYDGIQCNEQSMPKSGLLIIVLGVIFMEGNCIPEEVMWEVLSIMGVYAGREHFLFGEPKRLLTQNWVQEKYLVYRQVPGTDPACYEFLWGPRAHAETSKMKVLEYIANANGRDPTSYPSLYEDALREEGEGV
- Test name: TR-FRET primary / single point screen at 15 µM
- Format: binding
- Test settings: single point TR-FRET screening of quinoline compounds against MAGE-A11:PCF11; 15 µM
Recorded percent inhibition (TR-FRET), one value per entry.
Number only, please.

// sample CC(C)(C)c1ccc(-c2ccc3c(NCCCNCc4ccco4)ccnc3c2)cc1 [SJ000311286] , its percent inhibition (TR-FRET) was 73.499

// sample Clc1ccc2c(NCCCNCc3cc(Br)cs3)ccnc2c1 [SJ000521028] , its percent inhibition (TR-FRET) was 22.1075

// sample CCCN(CCCNc1ccnc2cc(C(F)(F)F)ccc12)Cc1ccccn1 [SJ000361252] , its percent inhibition (TR-FRET) was 15.1623

This collection of values is drawn from paper PMC7529893.
